Molecular target: Neuropilin-1 (Homo sapiens, UniProt O14786)
Sequence (O14786 whole entry): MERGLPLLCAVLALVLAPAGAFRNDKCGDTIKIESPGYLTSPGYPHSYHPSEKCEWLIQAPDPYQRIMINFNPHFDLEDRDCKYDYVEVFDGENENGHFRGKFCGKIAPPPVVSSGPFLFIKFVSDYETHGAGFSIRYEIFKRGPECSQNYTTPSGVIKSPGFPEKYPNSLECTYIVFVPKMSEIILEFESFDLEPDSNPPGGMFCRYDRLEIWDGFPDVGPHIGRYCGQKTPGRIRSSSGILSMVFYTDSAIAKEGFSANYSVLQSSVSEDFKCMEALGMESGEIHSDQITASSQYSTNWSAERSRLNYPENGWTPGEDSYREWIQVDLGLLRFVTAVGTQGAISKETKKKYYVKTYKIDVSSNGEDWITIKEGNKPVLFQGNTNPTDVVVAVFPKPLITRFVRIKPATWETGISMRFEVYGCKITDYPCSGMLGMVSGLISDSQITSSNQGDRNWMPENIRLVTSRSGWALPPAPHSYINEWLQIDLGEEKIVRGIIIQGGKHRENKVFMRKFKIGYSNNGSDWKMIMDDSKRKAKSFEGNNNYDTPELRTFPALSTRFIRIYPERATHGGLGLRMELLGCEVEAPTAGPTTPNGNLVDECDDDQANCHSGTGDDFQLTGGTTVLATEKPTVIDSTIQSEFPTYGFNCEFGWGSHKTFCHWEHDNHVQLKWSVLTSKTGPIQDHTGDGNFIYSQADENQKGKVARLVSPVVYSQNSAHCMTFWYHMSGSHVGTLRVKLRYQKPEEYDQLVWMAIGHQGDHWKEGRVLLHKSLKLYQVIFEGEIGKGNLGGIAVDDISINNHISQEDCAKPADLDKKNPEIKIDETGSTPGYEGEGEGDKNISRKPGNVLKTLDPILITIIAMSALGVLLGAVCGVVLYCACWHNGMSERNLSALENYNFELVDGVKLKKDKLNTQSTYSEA
Assay: Inhibition of human biotinylated VEGF-A165 binding to recombinant human NRP1 receptor after 2 hrs by chemiluminescence analysis
Settings: read-out: IC50
Square brackets hold non-standard residues; d marks the D form. Peptide text beside a SMILES is read from it. Oic = O=C(O)[C@@H]1C[C@@H]2CCCC[C@@H]2N1; Hyp = O=C(O)[C@@H]1C[C@@H](O)CN1; Pip(4-aza) = O=C(O)[C@@H]1CNCCN1; hArg = N=C(N)NCCCC[C@H](N)C(=O)O; ΔPro = O=C(O)[C@@H]1C=CCN1; Aze = O=C(O)[C@@H]1CCN1; Dab = NCC[C@H](N)C(=O)O
Please go through the items and note down their IC50.
Output spec: scalar in µM, unitless text.

What does the data say about its IC50? Entry: N=C(N)NCCCC[C@H](N)C(=O)NCCCC[C@H](N)C(=O)N[C@@H](CCN)C(=O)N1CCNC[C@H]1C(=O)N[C@@H](CCCNC(=N)N)C(=O)O (H-K(hArg)[Dab][Pip(4-aza)]R-OH) 80.5

What does the data say about its IC50? Entry: N=C(N)NCCCC[C@H](N)C(=O)NCCCC[C@H](N)C(=O)N1C[C@H](O)C[C@H]1C(=O)N1C[C@H](O)C[C@H]1C(=O)N[C@@H](CCCNC(=N)N)C(=O)O (H-K(hArg)[Hyp][Hyp]R-OH) 21.3

What does the data say about its IC50? Entry: N=C(N)NCCCC[C@H](N)C(=O)NCCCC[C@H](N)C(=O)N[C@@H](CCN)C(=O)N1CCC[C@H]1C(=O)N[C@@H](CCCNC(=N)N)C(=O)O (H-K(hArg)[Dab]PR-OH) 8.9

What does the data say about its IC50? Entry: N=C(N)NCCCC[C@H](N)C(=O)NCCCC[C@H](N)C(=O)N1CC[C@H]1C(=O)N1CC[C@H]1C(=O)N[C@@H](CCCNC(=N)N)C(=O)O (H-K(hArg)[Aze][Aze]R-OH) 48.6

What does the data say about its IC50? Entry: N=C(N)NCCCC[C@H](N)C(=O)NCCCC[C@H](N)C(=O)N[C@@H](CCN)C(=O)N1CC=C[C@H]1C(=O)N[C@@H](CCCNC(=N)N)C(=O)O (H-K(hArg)[Dab][ΔPro]R-OH) 4.3

What does the data say about its IC50? Entry: N=C(N)NCCCC[C@H](N)C(=O)NCCCC[C@H](N)C(=O)N1CC=C[C@H]1C(=O)N1CC=C[C@H]1C(=O)N[C@@H](CCCNC(=N)N)C(=O)O (H-K(hArg)[ΔPro][ΔPro]R-OH) 14

What does the data say about its IC50? Entry: N=C(N)NCCCC[C@H](N)C(=O)NCCCC[C@H](N)C(=O)N1[C@H](C(=O)N2[C@H](C(=O)N[C@@H](CCCNC(=N)N)C(=O)O)C[C@@H]3CCCC[C@@H]32)C[C@@H]2CCCC[C@@H]21 (H-K(hArg)[Oic][Oic]R-OH) 7.2

What does the data say about its IC50? Entry: N=C(N)NCCCC[C@H](N)C(=O)NCCCC[C@H](N)C(=O)N[C@@H](CCN)C(=O)N1[C@H](C(=O)N[C@@H](CCCNC(=N)N)C(=O)O)C[C@@H]2CCCC[C@@H]21 (H-K(hArg)[Dab][Oic]R-OH) 2.3
